Cited source for all entries: patent US20170189504A1

System: HLA-A*24
assay.comment: MHC binding assay, UV-ligand exchange with β2m ELISA, HLA-A*24 (Table 21)
Design: species or system human
test.settings: binding to HLA-A*24 ranged by peptide exchange yield (UV-ligand exchange, β2m ELISA)
test.readout: Peptide exchange

275 (EYINQGDLHEF; listed as Homo sapiens) [compound 275]    +++ (50%-75% = +++)
190 (GFFIFNERF; listed as Homo sapiens) [compound 190]    +++ (50%-75% = +++)
205 (VHIPEVYLI; listed as Homo sapiens) [compound 205]    +++ (50%-75% = +++)
199 (RYAEEVGIF; listed as Homo sapiens) [compound 199]    +++ (50%-75% = +++)
270 (NYYEVHKELF; listed as Homo sapiens) [compound 270]    +++ (50%-75% = +++)

Ask: Query (substance): 280 (RYPDNLKHLYL; listed as Homo sapiens) [compound 280] ; field requested: Peptide exchange
Result: ++++ (≧75% = ++++)

Ask: Can you share its Peptide exchange? I mean this substance: 158 (HYSQELSLLYL; listed as Homo sapiens) [compound 158]
Result: ++++ (≧75% = ++++)

Ask: Name the recorded Peptide exchange for 219 (EYPLVINTL; listed as Homo sapiens) [compound 219] .
Result: +++ (50%-75% = +++)

Ask: Look at this substance and give its reported Peptide exchange. 161 (IYLVSIPEL; listed as Homo sapiens) [compound 161]
Result: ++++ (≧75% = ++++)

* * *

Test system: HLA-A*02
assay.comment: MHC binding assay, UV-ligand exchange with β2m ELISA, HLA-A*02 (Table 20)
Design: species or system human
test.settings: binding to HLA-A*02 ranged by peptide exchange yield (UV-ligand exchange, β2m ELISA)
test.readout: Peptide exchange

114 (QLIQTLHAV; listed as Homo sapiens) [compound 114]    +++ (50%-75% = +++)
85 (VLNDILVRA; listed as Homo sapiens) [compound 85]    +++ (50%-75% = +++)
229 (AILAHLNTV; listed as Homo sapiens) [compound 229]    ++++ (≧75% = ++++)
75 (AVIKFLELL; listed as Homo sapiens) [compound 75]    +++ (50%-75% = +++)
20 (GLSQITNQL; listed as Homo sapiens) [compound 20]    +++ (50%-75% = +++)

Ask: Form field - read-out: Peptide exchange; system: HLA-A*02; submitted item: 254 (KLQGKLPEL; listed as Homo sapiens) [compound 254]
Result: ++ (20%-49% = ++)

Ask: # returns recorded Peptide exchange (system: HLA-A*02) for 63 (SQIPAQPSV; listed as Homo sapiens) [compound 63]
Result: ++ (20%-49% = ++)

* * *

Tested on: HLA-A*02
assay.comment: MHC binding assay, UV-ligand exchange with β2m ELISA, HLA-A*02 (Table 20)
Set-up: species or system human
test.settings: binding to HLA-A*02 ranged by peptide exchange yield (UV-ligand exchange, β2m ELISA)
test.readout: Peptide exchange

Worked examples, 5 substances total:
44 (SLFETAWEA; listed as Homo sapiens) [compound 44]    +++ (50%-75% = +++)
90 (FLQDLEQRL; listed as Homo sapiens) [compound 90]    +++ (50%-75% = +++)
55 (SLATKIVEA; listed as Homo sapiens) [compound 55]    +++ (50%-75% = +++)
53 (KMVGLVVAI; listed as Homo sapiens) [compound 53]    +++ (50%-75% = +++)
94 (LLLPAVPVGA; listed as Homo sapiens) [compound 94]    +++ (50%-75% = +++)

Ask: For the substance 11 (ALSPSYLTV; listed as Homo sapiens) [compound 11] , what Peptide exchange is on record?
Result: +++ (50%-75% = +++)

Ask: Recorded Peptide exchange for 250 (SLAPATPEV; listed as Homo sapiens) [compound 250] , please?
Result: +++ (50%-75% = +++)

Ask: Quick one: Peptide exchange for 255 (SLLHFTENL; listed as Homo sapiens) [compound 255] ?
Result: +++ (50%-75% = +++)

Ask: Form field: reported Peptide exchange of 57 (TVFTDHMLTV; listed as Homo sapiens) [compound 57]
Result: ++ (20%-49% = ++)

Ask: Would you mind telling me what Peptide exchange value was observed for 51 (LLFSRLCGA; listed as Homo sapiens) [compound 51] ?
Result: ++++ (≧75% = ++++)

Ask: Reported Peptide exchange for 41 (ALFENTPKA; listed as Homo sapiens) [compound 41] : what is it?
Result: ++ (20%-49% = ++)

* * *

System: CD8+ T cells
assay.comment: In vitro immunogenicity: T-cell priming with aAPCs loaded with peptide/MHC complexes and anti-CD28 antibody, pMHC multimer readout (Tables 19A, 19B)
Type: cell-based, human
test.settings: in vitro immunogenicity of HLA class I peptides, pMHC multimer readout after priming of CD8+ T cells
test.readout: Wells positive [%]

Examples with their reported Wells positive [%] follow.
11 (ALSPSYLTV; listed as Homo sapiens) [compound 11]    ++ (20%-49% = ++)
166 (YYVESGKLF; listed as Homo sapiens) [compound 166]    +++ (50%-69% = +++)
269 (YFIDSTNLKTHF; listed as Homo sapiens) [compound 269]    + (<20% = +)
235 (KIIDFLSAL; listed as Homo sapiens) [compound 235]    +++ (50%-69% = +++)
167 (NYINRILKL; listed as Homo sapiens) [compound 167]    + (<20% = +)

Ask: Wells positive [%] for 200 (YYGPSLFLL; listed as Homo sapiens) [compound 200] ?
Result: ++ (20%-49% = ++)

Ask: Looking for the measured Wells positive [%] of 26 (ALQEELTEL; listed as Homo sapiens) [compound 26] , can you help?
Result: + (<20% = +)

Ask: For the substance 281 (PYRLIFEKF; listed as Homo sapiens) [compound 281] , what Wells positive [%] is on record?
Result: +++ (50%-69% = +++)

Ask: Report Wells positive [%] for 90 (FLQDLEQRL; listed as Homo sapiens) [compound 90] please.
Result: + (<20% = +)

Ask: Which Wells positive [%] value belongs to 14 (ILAKDLFEI; listed as Homo sapiens) [compound 14] ?
Result: ++ (20%-49% = ++)

* * *

System: HLA-A*02
assay.comment: MHC binding assay, UV-ligand exchange with β2m ELISA, HLA-A*02 (Table 20)
Set-up: species or system human
test.settings: binding to HLA-A*02 ranged by peptide exchange yield (UV-ligand exchange, β2m ELISA)
test.readout: Peptide exchange

Recorded results for 6 substances are shown here.
86 (SVDSHFQEV; listed as Homo sapiens) [compound 86]    ++ (20%-49% = ++)
105 (ALLGTKILL; listed as Homo sapiens) [compound 105]    +++ (50%-75% = +++)
71 (VLHSKFWVV; listed as Homo sapiens) [compound 71]    +++ (50%-75% = +++)
125 (SLADYEHFV; listed as Homo sapiens) [compound 125]    ++++ (≧75% = ++++)
248 (YLDRFLAGV; listed as Homo sapiens) [compound 248]    ++++ (≧75% = ++++)
66 (KLIFSVEAV; listed as Homo sapiens) [compound 66]    +++ (50%-75% = +++)

Please examine the following record next.
Ask: Lab note: need Peptide exchange for 230 (KLQNIMMLL; listed as Homo sapiens) [compound 230] on HLA-A*02, anyone have it?
Result: ++ (20%-49% = ++)

* * *

Tested on: HLA-A*02
assay.comment: MHC binding assay, UV-ligand exchange with β2m ELISA, HLA-A*02 (Table 20)
Design: species or system human
test.settings: binding to HLA-A*02 ranged by peptide exchange yield (UV-ligand exchange, β2m ELISA)
test.readout: Peptide exchange

These recorded examples may help you get a feel for the data.
24 (TLDEKVAEL; listed as Homo sapiens) [compound 24]    +++ (50%-75% = +++)
26 (ALQEELTEL; listed as Homo sapiens) [compound 26]    +++ (50%-75% = +++)
102 (VLLDIQEVFQI; listed as Homo sapiens) [compound 102]    +++ (50%-75% = +++)
242 (WLYGEDHQI; listed as Homo sapiens) [compound 242]    ++ (20%-49% = ++)

Ask: Which Peptide exchange value is on record for 46 (SQFPLPLAV; listed as Homo sapiens) [compound 46] ?
Result: ++ (20%-49% = ++)

Ask: // lookup Peptide exchange for 5 (GIVAHIQEV; listed as Homo sapiens) [compound 5]
Result: +++ (50%-75% = +++)

Ask: May I ask what Peptide exchange has been recorded for 15 (YLDLSHNQL; listed as Homo sapiens) [compound 15] ?
Result: +++ (50%-75% = +++)
